assay-protocol: Selectivity index, ratio of CC50 for HEL cells to EC50 for Varicella zoster virus Oka infected in HEL cells
Type: toxicity, cell-based
measurement-parameters: human, read-out: Ratio CC50/EC50
result-type: selectivity ratio

Query: Given the compound COC(=O)[C@H](C)NP(=O)(C/C=C/Cn1cc(C)c(=O)[nH]c1=O)Oc1ccccc1 (some centres undefined) , what is its reported selectivity ratio?
Reply: > 12

Query: Given the compound Cc1cn(C/C=C/C[P@](=O)(N[C@@H](C)C(=O)OCc2ccccc2)Oc2ccccc2)c(=O)[nH]c1=O , what is its reported selectivity ratio?
Reply: ≥ 213

Query: Given the compound Cc1cn(C/C=C/CP(=O)(N[C@@H](C)C(=O)OC(C)C)Oc2ccccc2)c(=O)[nH]c1=O (some centres undefined) , what is its reported selectivity ratio?
Reply: > 22

Query: Given the compound O=c1[nH]c(=O)n([C@H]2C[C@H](O)[C@@H](CO)O2)cc1/C=C/Br , what is its reported selectivity ratio?
Reply: > 21400

* * *

Hi there, I'd appreciate the recorded selectivity ratio for every entry that follows.
assay-protocol: Selectivity index, ratio of CC50 for HEL cells to EC50 for thymidine kinase deficient Varicella zoster virus 07/1 infected in HEL cells
Assay type: toxicity, cell-based
measurement-parameters: human, read-out: Ratio CC50/EC50

Query: Given the compound COC(=O)[C@H](C)NP(=O)(C/C=C/Cn1cc(C)c(=O)[nH]c1=O)Oc1ccccc1 (some centres undefined) , what is its reported selectivity ratio?
Reply: > 55

Query: Given the compound O=c1[nH]c(=O)n([C@H]2C[C@H](O)[C@@H](CO)O2)cc1/C=C/Br , what is its reported selectivity ratio?
Reply: > 3

Query: Given the compound Cc1cn(C/C=C/CP(=O)(N[C@@H](C)C(=O)OC(C)C)Oc2ccccc2)c(=O)[nH]c1=O (some centres undefined) , what is its reported selectivity ratio?
Reply: > 97

Query: Given the compound Cc1cn(C/C=C/C[P@](=O)(N[C@@H](C)C(=O)OCc2ccccc2)Oc2ccccc2)c(=O)[nH]c1=O , what is its reported selectivity ratio?
Reply: ≥ 252
